- target: CXCL5
- method: BLI
# note: boundary value 30 nM maps to label 0; Kd below it maps to label 1

Request: # check: Kd < 30 nM for P1090_IXORI (other) GSKELSGPESSENSIEAAFCDTNCTEGTDGVWSGCSAGCFCVHVGNSTVGRCMTFNGVDGG
Response: label 0

Request: # check: Kd < 30 nM for P1172_IXORI (other) LHEDEIFTVDYCGTNCTKQSNGSWTTCPGNCSCYHEDGKTDGFCLSTEYTDFTQFPNLTSEEMDAATPRPE
Response: label 0

Request: # check: Kd < 30 nM for P1077_IXORI (other) GSKQLIGPQSSTNSIKAEFCDTNCTAGTNGIWNGCSGDCFCTHVGNSTEGRCMKITGFDEYPTSEAEE
Response: label 0

Request: # check: Kd < 30 nM for P1078_IXORI (other) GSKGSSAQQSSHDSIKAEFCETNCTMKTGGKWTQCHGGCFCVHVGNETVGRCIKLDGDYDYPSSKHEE
Response: label 0

Request: # check: Kd < 30 nM for P1100_IXORI (other) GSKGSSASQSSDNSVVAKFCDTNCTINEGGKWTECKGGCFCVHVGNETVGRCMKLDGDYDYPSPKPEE
Response: label 0

Request: # check: Kd < 30 nM for P1128_IXORI (other) KDDEHFSVDYCGMNCTQQEDGSWTACSGRNEECRCYHESGKKNGLCLSTTYIDFSQYGNPSDSDIAAASPRP
Response: label 0

Request: # check: Kd < 30 nM for P1086_IXORI (other) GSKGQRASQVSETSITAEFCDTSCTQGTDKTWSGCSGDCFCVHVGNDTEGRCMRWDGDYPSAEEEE
Response: label 1

Request: # check: Kd < 30 nM for P1132_IXORI (other) LSDEDELFSVEYCGTNCTKQDTGSWTTCSGNCTCYHEDGKKVGLCLSTEYTDFTKFPKPTSEEIANARPLPKREKTLN
Response: label 0

Request: # check: Kd < 30 nM for P1104_IXORI (other) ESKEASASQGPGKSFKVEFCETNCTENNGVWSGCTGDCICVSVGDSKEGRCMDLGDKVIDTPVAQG
Response: label 0

Request: # check: Kd < 30 nM for P942_IXORI (other) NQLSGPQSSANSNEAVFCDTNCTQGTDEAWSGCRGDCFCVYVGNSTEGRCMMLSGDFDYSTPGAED
Response: label 1

Request: # check: Kd < 30 nM for P675_IXORI (other) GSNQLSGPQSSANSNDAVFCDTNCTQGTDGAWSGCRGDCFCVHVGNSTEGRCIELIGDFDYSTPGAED
Response: label 0

Request: # check: Kd < 30 nM for P1080_IXORI (other) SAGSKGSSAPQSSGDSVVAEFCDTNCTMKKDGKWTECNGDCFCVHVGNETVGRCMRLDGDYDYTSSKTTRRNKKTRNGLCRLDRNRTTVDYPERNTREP
Response: label 0

Request: # check: Kd < 30 nM for P1074_IXORI (other) GSKESSAHQSSDDSIKAEFCDAKCTMKTDGKWTQCHGGCFCVHVGNETEGRCMRLDGDYDYPSTQPEE
Response: label 0

Request: # check: Kd < 30 nM for P458_IXORI (other) GSKQPGAAGSSSDSVEAVFCPTNCTKGTNGAWSGCSDDCICVHVGENTEGSCMKFSGDYDYPTPEA
Response: label 1

Request: # check: Kd < 30 nM for P1162_IXORI (other) LNDEELFTVDYCGTNCTQQPNGSWTTCPGNCSCYHEDGKTDGFCLSTEYTDFTQFPNLTSEEMDAATPRPE
Response: label 0

Request: # check: Kd < 30 nM for P1124_IXORI (other) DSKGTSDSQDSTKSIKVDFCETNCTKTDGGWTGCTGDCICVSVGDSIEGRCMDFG
Response: label 1

Request: # check: Kd < 30 nM for P1142_AMBCA (other) KPQILQRTDHSTDSDWDPQMCPETCNPSKNISCSSECLCVTLGGGDETGTCFNMSGVDWLGHAQASDGHNDG
Response: label 1

Request: # check: Kd < 30 nM for P1127_IXORI (other) AGKDDEHFSVDYCGMNCTQQEDGSWTACSGRNGECRCYHESGKRSGLCLSTTYIDFSEYGNLSDSDIAAASPRLSMKESH
Response: label 1

Request: # check: Kd < 30 nM for P1126_AMBCA (other) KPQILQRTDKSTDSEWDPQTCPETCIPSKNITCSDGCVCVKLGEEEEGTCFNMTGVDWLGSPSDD
Response: label 1
